Each item that follows carries a reported KM.
B1: glmS ribozyme (parent)
chain: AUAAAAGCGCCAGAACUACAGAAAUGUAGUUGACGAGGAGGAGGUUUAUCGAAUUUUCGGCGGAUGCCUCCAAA

- Variants of: B1
- assay.summary: KM; higher = weaker cofactor use; RNA array
- test.context: with glucosamine-6-phosphate
A complete answer gives the number and then names the unit.

Below are worked cases with known answers.
>>> value_observed("AUAAAAGCGCCAGAACUACAGAAAUGUAGUUAACGAGGAGGAGGUUUAUCGGAUUUUCGGCGGAUGCCUCCAAA [G32A A52G]")
"1760 µM"
>>> value_observed("AUAAAAGCGCCAGAACUACAGAAAUGUAGUUGACGAGGAGGAGGUAUAUCGAAUUUUCGGCGGGUGCCUCCAAA [U46A A64G]")
"2700 µM"
>>> value_observed("AUAAAAGCGCCAGAACUACAGAAAUGUAGUUUACGAGGAGGAGGUUUAUCGAAUUUUCGGCGGAUGACUCCAAA [G32U C67A]")
"4200 µM"
>>> value_observed("AUAAAAGCGCCAGAACUACAGAAAUGUAGUUGACGAGGAGGAGGUUUAUCGAAUUUUCGGCGGAGACCUCCAAA [U65G G66A]")
"2300 µM"
>>> value_observed("AUAAAAGCGCCAGAACUACAGAAAUGUAGUCAACGAGGAGGAGGUUUAUCGAAUUUUAGGCGGAGGCCUCCAAA [U31C G32A C58A U65G]")
"2320 µM"
>>> value_observed("AUAAAAGCGCCAGAUCUACAGAAAUGUAGGUGACGAGGAGGAGGUUUAUCGAAUUUUCGGCGGAUGCCUCCAAA [A15U U30G]")
"3400 µM"

We now examine a further variant.
[ask] Entry AUAAAAGCGCCAGAACUACAGAAAUGUAGUUGACGAGGAGGAGGUUUAUCGUAUGUUCGGCGGAUGCCUCCAAA [A52U U55G] : reported KM = ?
[reply] 2150 µM
